Test system: Stellaria media (STEME)
Assay Method Text: Herbicidal post-emergence action, 320 g/ha, STEME
Assay type: in vivo
Condition Summary: visual grading after ca. 3 weeks
Measured herbicidal effect STEME, listed per entry.
Expressed in %, but write only the number.

Solved entries (count: 5):
Sample Smiles	System Under Test	Units Symbol	herbicidal effect STEME
Cc1nn(C)c(=O)c(Oc2cc(Cl)ccc2Cl)c1O	Stellaria media (STEME)	%	100
Cc1nn(C)c(=O)c(Oc2cc(Cl)ccc2Br)c1OC(=O)C(C)C	Stellaria media (STEME)	%	90
CCOC(=O)Oc1c(C)nn(C)c(=O)c1Oc1cc(Cl)cc(Cl)c1Cl	Stellaria media (STEME)	%	90
Cc1nn(C)c(=O)c(Oc2cc(Cl)cc(Cl)c2Cl)c1OC(=O)C(C)C	Stellaria media (STEME)	%	90
Cc1nn(C)c(=O)c(Oc2cc(F)cc(F)c2Br)c1OC(=O)C(C)C	Stellaria media (STEME)	%	90

Data request, read-out herbicidal effect STEME, for CCOC(=O)Oc1c(C)nn(C)c(=O)c1Oc1cc(F)cc(F)c1Br
90

Data request, read-out herbicidal effect STEME, for Cc1nn(C)c(=O)c(Oc2ccccc2C2CC2)c1O
100

* * *

Measured herbicidal effect STEME, listed per entry.
Tested on: Stellaria media (STEME)
Assay Method Text: Herbicidal pre-emergence action, 1280 g/ha (Table A9)
Assay type: in vivo
Condition Summary: visual grading after ca. 3 weeks vs untreated controls
Expressed in %, but write only the number.

Compound	herbicidal effect STEME (%)
Cc1nn(C)c(=O)c(Oc2cc(Cl)ccc2Br)c1OC(=O)C(C)C [Example I-092]	100
CCOC(=O)Oc1c(C)nn(C)c(=O)c1Oc1cc(Cl)ccc1C1CC1 [Example I-070]	90

Data request, read-out herbicidal effect STEME, for CCOC(=O)Oc1c(C)nn(C)c(=O)c1Oc1ccccc1OC(F)F [Example I-074]
90

Data request, read-out herbicidal effect STEME, for Cc1nn(C)c(=O)c(Oc2cc(F)ccc2Br)c1OC(=O)C(C)C [Example I-089]
90

Data request, read-out herbicidal effect STEME, for Cc1nn(C)c(=O)c(Oc2ccccc2Br)c1O [Example I-011]
100

Data request, read-out herbicidal effect STEME, for Cc1nn(C)c(=O)c(Oc2cc(F)c(F)cc2C2CC2)c1OC(=O)C(C)C [Example I-102]
100

Data request, read-out herbicidal effect STEME, for Cc1nn(C)c(=O)c(Oc2cc(Cl)cc(Cl)c2Cl)c1OC(=O)C(C)C [Example I-100]
100

Data request, read-out herbicidal effect STEME, for CCOC(=O)Oc1c(C)nn(C)c(=O)c1Oc1ccccc1Cl [Example I-010]
90

Data request, read-out herbicidal effect STEME, for CCOC(=O)Oc1c(C)nn(C)c(=O)c1Oc1c(F)cccc1C1CC1 [Example I-085]
90

* * *

Measured herbicidal effect STEME, listed per entry.
Test system: Stellaria media (STEME)
Assay Method Text: Herbicidal pre-emergence action, 320 g/ha, STEME
Format: in vivo
Condition Summary: visual grading after ca. 3 weeks
Expressed in %, but write only the number.

Solved entries (count: 5):
Compound	Units Symbol	herbicidal effect STEME
CCOC(=O)Oc1c(C)nn(C)c(=O)c1Oc1cc(Cl)ccc1C1CC1 [Example I-070]	%	90
Cc1nn(C)c(=O)c(Oc2cc(F)ccc2Br)c1O [Example I-026]	%	100
Cc1nn(C)c(=O)c(Oc2cc(F)cc(F)c2Br)c1O [Example I-090]	%	90
Cc1nn(C)c(=O)c(Oc2cc(F)c(F)cc2C2CC2)c1OC(=O)C(C)C [Example I-102]	%	90
Cc1nn(C)c(=O)c(Oc2cc(Cl)ccc2Br)c1OC(=O)C(C)C [Example I-092]	%	90

Now consider a different compound.
Data request, read-out herbicidal effect STEME, for Cc1nn(C)c(=O)c(Oc2cc(F)ccc2C2CC2)c1O [Example I-046]
100

* * *

System: Stellaria media (STEME)
Assay Method Text: Herbicidal pre-emergence action, 320 g/ha, STEME
Type: in vivo
Condition Summary: visual grading after ca. 3 weeks
Measured herbicidal effect STEME, listed per entry.
Expressed in %, but write only the number.

Solved entries (count: 4):
Compound	Units Symbol	herbicidal effect STEME
Cc1nn(C)c(=O)c(Oc2cc(F)cc(F)c2Br)c1OC(=O)C(C)C [Example I-099]	%	90
Cc1nn(C)c(=O)c(Oc2cc(Cl)cc(Cl)c2Cl)c1OC(=O)C(C)C [Example I-100]	%	100
Cc1nn(C)c(=O)c(Oc2ccccc2C(C)C)c1O [Example I-022]	%	100
Cc1nn(C)c(=O)c(Oc2ccccc2C2CC2)c1O [Example I-014]	%	100

Now consider a different compound.
Data request, read-out herbicidal effect STEME, for Cc1nn(C)c(=O)c(Oc2cc(Cl)ccc2Br)c1O [Example I-091]
100

* * *

Test system: Stellaria media (STEME)
Assay Method Text: Herbicidal pre-emergence action, 1280 g/ha (Table A9)
Type: in vivo
Condition Summary: visual grading after ca. 3 weeks vs untreated controls
Readout: herbicidal effect STEME (%)
Expressed in %, but write only the number.

Data request, read-out herbicidal effect STEME, for Cc1nn(C)c(=O)c(Oc2cc(F)c(F)cc2C2CC2)c1O [Example I-101]
100

Data request, read-out herbicidal effect STEME, for Cc1nn(C)c(=O)c(Oc2cc(Cl)ccc2Br)c1O [Example I-091]
100

Data request, read-out herbicidal effect STEME, for Cc1nn(C)c(=O)c(Oc2ccccc2OC(F)F)c1O [Example I-082]
90

Data request, read-out herbicidal effect STEME, for Cc1nn(C)c(=O)c(Oc2cc(F)cc(F)c2Br)c1O [Example I-090]
100

Data request, read-out herbicidal effect STEME, for Cc1nn(C)c(=O)c(Oc2cccc(F)c2Cl)c1O [Example I-025]
100

* * *

Tested on: Amaranthus retroflexus (AMARE)
Assay Method Text: Herbicidal post-emergence action, 320 g/ha, AMARE
Type: in vivo
Condition Summary: visual grading after ca. 3 weeks
Measured herbicidal effect AMARE, listed per entry.
Expressed in %, but write only the number.

Solved entries (count: 2):
Sample Smiles	Units Symbol	herbicidal effect AMARE
CCOC(=O)Oc1c(C)nn(C)c(=O)c1Oc1cc(Cl)ccc1Cl	%	90
Cc1nn(C)c(=O)c(Oc2ccccc2C2CC2)c1O	%	90

Data request, read-out herbicidal effect AMARE, for CCOC(=O)Oc1c(C)nn(C)c(=O)c1Oc1ccccc1OC(F)(F)F
90

* * *

Test system: Abutilon theophrasti (ABUTH)
Assay Method Text: Herbicidal post-emergence action, 320 g/ha, ABUTH
Assay type: in vivo
Condition Summary: visual grading after ca. 3 weeks
Measured herbicidal effect ABUTH, listed per entry.
Expressed in %, but write only the number.

Molecule	Readout	Units Symbol	Quantitative Result
CCOC(=O)Oc1c(C)nn(C)c(=O)c1Oc1ccc(F)cc1C1CC1 [Example I-034]	herbicidal effect ABUTH	%	90
CCOC(=O)Oc1c(C)nn(C)c(=O)c1Oc1cc(F)ccc1C1CC1 [Example I-045]	herbicidal effect ABUTH	%	100
Cc1nn(C)c(=O)c(Oc2cccc(F)c2C2CC2)c1O [Example I-073]	herbicidal effect ABUTH	%	100
CCOC(=O)Oc1c(C)nn(C)c(=O)c1Oc1c(F)cccc1C1CC1 [Example I-085]	herbicidal effect ABUTH	%	90

Data request, read-out herbicidal effect ABUTH, for CC(=O)Oc1c(C)nn(C)c(=O)c1Oc1ccccc1C(F)(F)F [Example I-030]
90

Data request, read-out herbicidal effect ABUTH, for Cc1nn(C)c(=O)c(Oc2cc(F)ccc2Br)c1O [Example I-026]
90

Data request, read-out herbicidal effect ABUTH, for Cc1nn(C)c(=O)c(Oc2ccc(Cl)cc2C2CC2)c1O [Example I-035]
90

* * *

Measured herbicidal effect STEME, listed per entry.
Test system: Stellaria media (STEME)
Assay Method Text: Herbicidal pre-emergence action, 1280 g/ha (Table A9)
Type: in vivo
Condition Summary: visual grading after ca. 3 weeks vs untreated controls
Description: Seeds of mono- and dicotyledonous weed plants were sown in plastic pots (double sowings with one species of mono- and one species of dicotyledonous weed plants per pot), in sandy loam, and covered with soil. […]

Solved entries (count: 6):
Molecule	herbicidal effect STEME
Cc1nn(C)c(=O)c(Oc2cc(F)ccc2Br)c1O [Example I-026]	100%
CCOC(=O)Oc1c(C)nn(C)c(=O)c1Oc1cccc(F)c1C1CC1 [Example I-058]	90%
Cc1nn(C)c(=O)c(Oc2cc(F)ccc2C2CC2)c1O [Example I-046]	100%
Cc1nn(C)c(=O)c(Oc2ccc(F)cc2C2CC2)c1O [Example I-033]	90%
Cc1cccc(Cl)c1Oc1c(O)c(C)nn(C)c1=O [Example I-023]	90%
Cc1nn(C)c(=O)c(Oc2ccccc2C#N)c1O [Example I-028]	100%

Data request, read-out herbicidal effect STEME, for Cc1nn(C)c(=O)c(Oc2cc(Cl)ccc2C2CC2)c1O [Example I-071]
90%
